Reference source for all entries: patent US20210380703A1

assayed target: T1, Human ACVR2A (human, UniProt P27037 20-135, limits assumed); further: test concentration or dose not given here
T1 construct: also called activin receptor, type II A
T1 sequence (P27037 20-135 limits assumed): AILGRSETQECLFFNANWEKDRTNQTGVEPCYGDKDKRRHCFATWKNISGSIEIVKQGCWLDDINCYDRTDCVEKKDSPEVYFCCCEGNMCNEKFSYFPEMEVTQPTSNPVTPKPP
protocol details: ELISA
Description: The binding of ACVR2A-specific monoclonal antibodies to human ACVR2A, mouse ACVR2A, biotinylated goat anti-human kappa light chain (positive control) and human Fc (negative control) were determined by ELISA.
measured attribute: optical density (OD)
Expressed in OD, but write only the number.

Measured optical density, 374_B06 (antibody, V domains shown) VH: EVQLLESGGGLVQPGGSLRLSCAASGFTFDSYSMNWVRQAPGKGLEWVAGINYNSGYKGYADSVKGRFTISRDNSKNTLYLQMNSLRAEDTAVYYCARSANWHDTHLDYWGQGTLVTVSS VL: DIQMTQSPSSLSASVGDRVTITCRASQSILTYVNWYQQKPGKAPKLLIYAATSRASGVPSRFSGSGSGTDFTLTISSLQPEDFATYYCQQSYDTPLTFGGGTKVEIK : 3.48

optical density reading for 368_C05 (antibody, V domains shown) VH: EVQLLESGGGLVQPGGSLRLSCAASGFTFDSYGMNWVRQAPGKGLEWVSGINYNSGYTSYADSVKGRFTISRDNSKNTLYLQMNSLRAEDTAVYYCARSANWHDTALDYWGQGTLVTVSS VL: DIQMTQSPSSLSASVGDRVTITCRASQSILSYLNWYQQKPGKAPKLVIYAATSRASGVPSRFSGSGSGTDFTLTISSLQPEDFATYYCQQSDSNPLTFGGGTKVEIK : 1.82

optical density in this record for 371_B07 (antibody, V domains shown) VH: EVQLLESGGGLVQPGGSLRLSCAASGFTFDSYSMNWVRQAPGKGLEWVAGINYNGGYTSYADSVKGRFTISRDNSKNTLYLQMNSLRAEDTAVYYCARSANWHDTALDYWGQGTLVTVSS VL: DIQMTQSPSSLSASVGDRVTITCRASQSILTYVNWYQQKPGKAPKLLIYAATSRASGVPSRFSGSGSGTDFTLTISSLQPEDFATYYCQQSYELPLTFGGGTKVEIK : 2.78
